target: JAK2 (Homo sapiens (Human)); experiment: Jak Biochemical HTRF Assay, JAK2; details: HTRF biochemical assay, GST-tagged catalytic domain; top concentration tested […]
Sequence (O60674 849-1124): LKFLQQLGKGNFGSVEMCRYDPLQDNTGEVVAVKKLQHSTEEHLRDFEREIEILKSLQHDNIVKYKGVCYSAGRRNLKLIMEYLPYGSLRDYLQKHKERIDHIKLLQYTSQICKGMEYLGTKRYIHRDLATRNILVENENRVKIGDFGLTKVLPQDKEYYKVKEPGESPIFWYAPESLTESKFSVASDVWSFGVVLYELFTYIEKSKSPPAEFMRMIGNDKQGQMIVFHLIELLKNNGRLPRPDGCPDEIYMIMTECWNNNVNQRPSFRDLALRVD
pIC50: −log10 of the molar value.
RECORDED_ENDPOINT: pIC50

Illustrative cases are given below, each with its answer.
compound="N#CCC1(n2cc(C(N)=O)c(Nc3ccc(F)cc3)n2)CCC(N2Cc3ccccc3C2)CC1 (stereo not shown)" measurement=7.08
compound=N#CCC1(n2cc(C(N)=O)c(Nc3ccc(F)cc3)n2)CCN(Cc2ccc(F)cn2)CC1 measurement=7.14

a. COC(C)COC(=O)N1CCC(CC#N)(n2cc(C(N)=O)c(Nc3ccc(F)cc3)n2)CC1 (stereo not shown)
b. COCC(C)OC(=O)N1CCC(CC#N)(n2cc(C(N)=O)c(Nc3ccc(F)cc3)n2)CC1 (stereo not shown)
c. C[C@@H](OC(=O)N1CCC(CC#N)(n2cc(C(N)=O)c(Nc3ccnc(F)c3)n2)CC1)C1CC1
d. N#CCC1(n2cc(C(N)=O)c(Nc3ccnc(F)c3)n2)CCC(NCc2ccc(F)cc2)CC1 (stereo not shown) [Example 41-25]
Provide the items ranked by increasing pIC50. Give the order by naming the labels one after another as requested.
d, a, b, c

---

Target: JAK1 (Homo sapiens (Human))
Sequence (P23458 875-1153): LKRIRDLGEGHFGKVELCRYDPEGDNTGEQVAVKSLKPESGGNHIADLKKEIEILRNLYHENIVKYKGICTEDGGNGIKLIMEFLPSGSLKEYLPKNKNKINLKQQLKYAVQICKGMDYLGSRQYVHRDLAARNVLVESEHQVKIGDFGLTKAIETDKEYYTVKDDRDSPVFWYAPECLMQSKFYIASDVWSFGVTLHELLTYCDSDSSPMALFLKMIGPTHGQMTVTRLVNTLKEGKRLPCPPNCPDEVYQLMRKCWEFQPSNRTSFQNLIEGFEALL
Experiment: Jak Biochemical HTRF Assay, JAK1
Details: HTRF biochemical assay, GST-tagged catalytic domain; top concentration tested […]; read-out: JAK1 IC50
Excerpt: Jak Biochemical HTRF Assay Protocol Subsequent reagent additions employed an Agilent Bravo.
pIC50: −log10 of the molar value.
RECORDED_ENDPOINT: pIC50

Illustrative cases are given below, each with its answer.
compound=CC(C)(C)OC(=O)N1CCC(CC#N)(n2cc(C(N)=O)c(Nc3ccc(S(=O)(=O)C(F)(F)F)cc3)n2)CC1 system_tested="JAK1 (Homo sapiens (Human))" recorded_endpoint=pIC50 measurement=8.70
compound=Cn1cc(C(=O)N2CCC(CC#N)(n3cc(C(N)=O)c(Nc4ccnc(F)c4)n3)CC2)cn1 system_tested="JAK1 (Homo sapiens (Human))" recorded_endpoint=pIC50 measurement=8.70
compound=N#CCC1(n2cc(C(N)=O)c(Nc3ccc(F)cc3)n2)CCN(C(=O)OC2COC2)CC1 system_tested="JAK1 (Homo sapiens (Human))" recorded_endpoint=pIC50 measurement=8.70
compound="N#CCC1(n2cc(C(N)=O)c(Nc3ccnc(F)c3)n2)CCC(Nc2ccc(F)cc2)CC1 (stereo not drawn) [Example 40-40]" system_tested="JAK1 (Homo sapiens (Human))" recorded_endpoint=pIC50 measurement=9.70
compound=N#CC[C@]1(n2cc(C(N)=O)c(Nc3ccccc3)n2)C[C@@H](C#N)C1 system_tested="JAK1 (Homo sapiens (Human))" recorded_endpoint=pIC50 measurement=7.51

A. Cc1ccc(N2CCC(CC#N)(n3cc(C(N)=O)c(Nc4ccc(F)cc4)n3)CC2)cn1
B. N#CCC1(n2cc(C(N)=O)c(Nc3ccccc3)n2)CCN(S(=O)(=O)c2ccc(C(F)(F)F)cc2)CC1
C. Cc1c(Cl)cccc1NC(=O)N1CC(CC#N)(n2cc(C(N)=O)c(Nc3ccccc3)n2)C1
D. N#CC[C@]1(n2cc(C(N)=O)c(Nc3ccc(S(=O)(=O)C(F)F)cc3)n2)CC[C@H](N)CC1 [Example 41-3]
E. CSCCCN1CCC(CC#N)(n2cc(C(N)=O)c(Nc3ccccc3)n2)CC1
Provide the items ranked by increasing pIC50. Give the order by naming the labels one after another as requested.
C, E, B, D, A

Value source: patent US9328099B2
